Item-by-item account of Plant response rating, Sugarbeets
Test system: sugar beet
measurementDescription: Test B pre/postemergence sugar beet
Format: in vivo, Beta vulgaris
measurementSetup: Preemergence, Rate 62 g/ha; scale of 0 to 10 where 0 is no effect and 10 is complete control
Number only, no unit.

Consider the worked cases shown below.
COC(=O)CCCn1c(=O)on(C(=O)N(c2ccc(F)cc2F)C(C)C)c1=O [Compound 513]    0
CC(C)N(C(=O)n1oc(=O)n(CC2CCC2)c1=O)c1ccc(F)cc1F [Compound 521]    0
CC(C)N(C(=O)n1oc(=O)n(CCCl)c1=O)c1ccccc1 [Compound 469]    6

## Task Name the reported Plant response rating, Sugarbeets value associated with the molecule CC(C)N(C(=O)n1oc(=O)n(CC(=O)C2CC2)c1=O)c1ccccc1 [Compound 489]
## Result 0

====

Reported Soybean plant response rating by item:
Tested on: soybean
measurementDescription: Test B pre/postemergence soybean
Assay type: in vivo, Glycine max
measurementSetup: Preemergence, Rate 500 g/ha; scale 0 to 10 (0 no effect, 10 complete control)
Procedure: […] At the same time, these crop and weed species were also treated with postemergence applications of test chemicals formulated in the same manner. […] Treated plants and controls were maintained in a greenhouse for twelve to sixteen days, after which all species were compared to controls and visually evaluated. […]

CCCn1c(=O)on(C(=O)N(c2ccc(F)cc2F)C(C)C)c1=O    4
Cc1ccccc1-n1c(=O)on(C(=O)N(c2ccc(Br)cc2)C(C)C)c1=O    0
C=CCn1c(=O)on(C(=O)N(c2ccc(F)cc2F)C(C)C)c1=O    7
CC(C)N(C(=O)n1oc(=O)n(C(C)(C)C)c1=O)c1ccc(Cl)cc1    0
CC(C)N(C(=O)n1oc(=O)n(C(C)C)c1=O)c1ccc(F)cc1    8
CC(C)N(C(=O)n1oc(=O)n([C@H](C)c2ccccc2)c1=O)c1ccc(F)cc1    0

// switching to the query compound
## Task Query: Soybean plant response rating; subject: `CC(C)N(C(=O)n1oc(=O)n(-c2ccnn2C)c1=O)c1ccc(F)cc1`
## Result 0

====

Tested on: rape
measurementDescription: Test B pre/postemergence rape
Assay type: in vivo, Brassica napus
measurementSetup: Postemergence, Rate 250 g/ha; scale 0 to 10
Rape plant response rating values for the molecules below.
# output: bare number, no unit

CC(=O)NCn1c(=O)on(C(=O)N(c2ccc(F)cc2)C(C)C)c1=O [Compound 473]    0
CC(C)N(C(=O)n1oc(=O)n(C(C)Cl)c1=O)c1ccccc1 (stereo not shown) [Compound 438]    0
CC(C)N(C(=O)n1oc(=O)n(CC(=O)N(C)C)c1=O)c1ccc(Cl)cc1 [Compound 477]    1

In the following, a different molecule is considered.
## Task Dear colleague, I am looking for the recorded Rape plant response rating of the following molecule: CC(C)N(C(=O)n1oc(=O)n(CO)c1=O)c1ccc(F)cc1 [Compound 470]
## Result 0

====

System: crabgrass
measurementDescription: Test B pre/postemergence crabgrass
Format: in vivo, Digitaria sanguinalis
measurementSetup: Rate 250 g/ha, Postemergence; scale of 0 to 10 where 0 is no effect and 10 is complete control
List of Plant response rating, Crabgrass values.
In your answer, state the number alone without any accompanying words.

Solved cases below.
C=CCn1c(=O)on(C(=O)N(c2ccc(Cl)cc2)C(C)C2CC2)c1=O (centres unmarked)    0
COC(Cn1c(=O)on(C(=O)N(c2ccc(F)cc2)C(C)C)c1=O)OC    8

## Task Quick check: Plant response rating, Crabgrass of `Cc1ccccc1-n1c(=O)on(C(=O)N(c2ccc(OC(F)(F)F)cc2)C(C)C)c1=O` ?
## Result 0

## Task Try `CC(C)N(C(=O)n1oc(=O)n(CC(C)(C)C)c1=O)c1ccc(F)cc1F` next.
## Result 5

## Task Would you mind doing `CC(C)N(C(=O)n1oc(=O)n(CCCF)c1=O)c1ccccc1` as well?
## Result 9

## Task And then `CC(C)N(C(=O)n1oc(=O)n(CCCC(F)(F)F)c1=O)c1ccc(F)cc1F` , what is it?
## Result 9

## Task Now this one: `C=CCn1c(=O)on(C(=O)N(CC)C2CCCCC2)c1=O`
## Result 0

## Task Please give the result for `CC(C)N(C(=O)n1oc(=O)n(C2CCOCC2)c1=O)c1ccc(F)cc1` too.
## Result 9

====

Tested on: pigweed
measurementDescription: Test B pre/postemergence pigweed
Format: in vivo, Amaranthus retroflexus
measurementSetup: Preemergence, Rate 125 g/ha; scale 0 to 10, 0 is no effect, 10 is complete control
readout: Redroot pigweed plant response rating
A bare number is all that is needed in reply.

Recorded results for 3 compounds are shown here.
C=CCCCn1c(=O)on(C(=O)N(c2ccc(Cl)cc2)C(C)C)c1=O    3
CC(C)N(C(=O)n1oc(=O)n(CCNC(=O)CCl)c1=O)c1ccccc1    0
CC(C)N(C(=O)n1oc(=O)n(CC2CCC2)c1=O)c1ccc(F)cc1F    0

Continue with the compound presented below.
## Task Would you mind telling me what Redroot pigweed plant response rating value was observed for `CC(C)N(C(=O)n1oc(=O)n(C[Si](C)(C)C)c1=O)c1ccccc1` ?
## Result 0

====

Tested on: giant foxtail
measurementDescription: Test B pre/postemergence giant foxtail
Assay type: in vivo, Setaria faberii
measurementSetup: Postemergence, Rate 62 g/ha; scale of 0 to 10, 0 is no effect, 10 is complete control
# Giant foxtail plant response rating annotations
Give your answer as a number; write no unit.

Record excerpt, results attached:
CC(C)N(C(=O)n1oc(=O)n(CCCC(F)(F)F)c1=O)c1ccccc1    6
CC(C)N(C(=O)n1oc(=O)n(C[Si](C)(C)C)c1=O)c1ccccc1    0

## Task Short answer please: Giant foxtail plant response rating, giant foxtail, entry `CC(C)N(C(=O)n1oc(=O)n(CCCCF)c1=O)c1ccc(F)cc1F`
## Result 8

## Task Same question, `CC(C)N(C(=O)n1oc(=O)n(COCc2ccccc2)c1=O)c1ccc(F)cc1F` this time
## Result 2

## Task One more compound: CC(C)N(C(=O)n1oc(=O)n(C(C)C(=O)c2ccccc2)c1=O)c1ccc(F)cc1F (stereo not drawn)
## Result 3

## Task Input `CCC=CCn1c(=O)on(C(=O)N(c2ccccc2)C(C)C)c1=O`
## Result 3

====

System: corn
measurementDescription: Test B pre/postemergence corn
Assay type: in vivo, Zea mays
measurementSetup: Preemergence, Rate 250 g/ha
readout: Corn plant response rating (0 to 10 scale)
Format: numeric value only, no unit, no commentary.

CC(C)N(C(=O)n1oc(=O)n(CCCCF)c1=O)c1ccc(F)cc1F [Compound 522]    7
C=CCCCn1c(=O)on(C(=O)N(c2ccc(Cl)cc2)C(C)C)c1=O [Compound 546]    0
CC(C)N(C(=O)n1oc(=O)n(CC(=O)N(C)C)c1=O)c1ccccc1 [Compound 588]    0
C=C(Cn1c(=O)on(C(=O)N(c2ccccc2)C(C)C)c1=O)c1cccc(Cl)n1 [Compound 605]    0
CC(C)N(C(=O)n1oc(=O)n(CCCC(F)(F)F)c1=O)c1ccccc1 [Compound 585]    3
CC(C)N(C(=O)n1oc(=O)n(CC[N+](=O)[O-])c1=O)c1ccc(F)cc1F [Compound 591]    0
CC(C)N(C(=O)n1oc(=O)n(C(CF)CF)c1=O)c1ccc(F)cc1F [Compound 595]    4
CCC=CCn1c(=O)on(C(=O)N(c2ccccc2)C(C)C)c1=O [Compound 582]    0
CC(C)N(C(=O)n1oc(=O)n(COCc2ccccc2)c1=O)c1ccc(F)cc1F [Compound 520]    0
CC(C)N(C(=O)n1oc(=O)n(C[Si](C)(C)C)c1=O)c1ccccc1 [Compound 577]    2

Continue with the next molecule.
## Task Tell me the measured Corn plant response rating (0 to 10 scale) of CC(C)N(C(=O)n1oc(=O)n(CC2CCC2)c1=O)c1ccccc1 [Compound 580] , please.
## Result 2

====

Test system: smallflower flatsedge
measurementDescription: Test B flood test smallflower flatsedge
Format: in vivo, Cyperus difformis
measurementSetup: Postemergence, Rate 62 g/ha; scale 0 to 10, 0 is no effect, 10 is complete control
S. Flatsedge plant response rating for assorted molecules
// return a plain number; no unit text

CCN(CC)C(=O)n1oc(=O)n(Cc2cccs2)c1=O    0
Cc1cccc(Cl)c1-n1c(=O)on(C(=O)N(c2ccc(Cl)cc2)C(C)C)c1=O    0
Cc1cccc(C)c1-n1c(=O)on(C(=O)N(c2ccc(F)cc2)C(C)C)c1=O    0

## Task Under smallflower flatsedge: S. Flatsedge plant response rating value of `Cc1ccccc1-n1c(=O)on(C(=O)N(c2ccc([N+](=O)[O-])cc2)C(C)C)c1=O` ?
## Result 0

## Task // next record `Cc1nn(C)c(Cl)c1-n1c(=O)on(C(=O)N(c2ccc(F)cc2F)C(C)C)c1=O`
## Result 0
